Metric: logP
Answers are plain numbers.

// known answers, use as guide
# Molecule Smiles, logP
measured = [
    ("CC1(C)C=Cc2cc(C(C)(C)C)c3c(c2O1)CCC(C)(C)O3", 8.17),
    ("COc1cc2c(cc1OCC(F)(F)F)OC(C)(C)C=C2", 4.49),
    ("COc1c2c(cc3c1OC(C)(C)CC3)C=CC(C)(C)O2", 4.47),
]

Dear colleague, could you send me logP for each of the items below? Thanks.
1. Cc1c2c(cc3c1OC(C)(C)CC3)C=CC(C)(C)O2
2. CC1(C)C=Cc2c(ccc3c2CCC(C)(C)O3)O1
3. CCc1cc2c(c3c1OC(C)(C)CC3)OC(C)(C)C=C2
4. COc1cc2c(cc1OC)OC(C)(C)C=C2
5. CCOc1cc2c(cc1OC)C=CC(C)(C)O2
6. COc1ccc2c(c1)OC(C)(C)C=C2
7. CC1(C)C=Cc2c(c3c(c4c2OC(C)(C)CC4)OC(C)(C)CC3)O1

RESULT:
1: 6.2; 2: 4.01; 3: 6.97; 4: 2.77; 5: 3.36; 6: 3.46; 7: 5.8

Dear reader, for each entry below, please note its logP.
1. CC1(C)C=Cc2ccc(Cl)cc2O1
2. COc1cc2c(cc1OCC(F)(F)F)C=CC(C)(C)O2
3. CCOc1cc2c(cc1Cl)C=CC(C)(C)O2

RESULT:
1. 4.55
2. 4.79
3. 4.89
